Listing of recorded PA_CL5701 MITC95 by entry.
- System: Pseudomonas aeruginosa expressing AmpC (CL5701)
- experimental_protocol: Antibiotic activity: growth inhibitory concentration (OD600), Pseudomonas aeruginosa CL5701
- Format: cell-based
- condition_description: lowest concentration inhibiting 95% of bacterial growth; in the presence of β lactamase inhibitor Relebactam 4 μg/mL; 35±2° C. for 22 hours; tested range 100 μM to 0.098 μM
State just the number; it will be interpreted in µM.

What does the data say about its PA_CL5701 MITC95? Entry: C[n+]1cc(-c2ccc(OCC(C)(O/N=C(\C(=O)N[C@@H]3C(=O)N(OS(=O)(=O)O)C3(C)C)c3nc(N)sc3Cl)C(=O)O)cc2)cn1CCCN (stereo in doubt) [Example 51A] 3.125

Thanks! And CC1(C)[C@H](NC(=O)/C(=N\O[C@@H](COc2ccc(-c3cnc(NCCN)nc3)cc2)C(=O)O)c2csc(N)n2)C(=O)N1OS(=O)(=O)O [Example 70] ? 6.25

Param item: C[n+]1cc(-c2ccc(OC[C@H](O/N=C(\C(=O)N[C@@H]3C(=O)N(OS(=O)(=O)O)C3(C)C)c3csc(N)n3)C(=O)O)cc2F)cn1CC(N)CN (single isomer, unassigned) [Example 46] 6.25

Moving on to C[n+]1cc(-c2ccc(OC[C@H](O/N=C(\C(=O)N[C@@H]3C(=O)N(OS(=O)(=O)O)C3(C)C)c3csc(N)n3)C(=O)O)c(F)c2)cn1CCCN [Example 15] 6.25

# evaluate next
Please look up its PA_CL5701 MITC95: CC1(C)[C@H](NC(=O)/C(=N\O[C@@H](COc2ccc(-c3cn(CCCN)[n+](CC(F)CN)c3)cc2)C(=O)O)c2csc(N)n2)C(=O)N1OS(=O)(=O)[O-] (single isomer, unassigned) [Example 120] 3.125
